Test system: Streptococcus sp.
Experiment: in vitro antibacterial evaluation, MIC by broth dilution
Type: cell-based
Conditions: broth dilution, inoculum 5×10^5 CFU/mL, 18 hours at 35° C.; strain GC 4563
Source text: Methods for in vitro Antibacterial Evaluation (Table 1) […]
value.kind: MIC Streptococcus pyogenes (GC 4563)

Past entries and their recorded results:
CC(c1ccccc1)C1NC(=O)CNC(=O)C(CO)NC(=O)C(C(O)C2CNC(=N)N2C2OC(CO)C(O)C3OC(C)(C)OC32)NC(=O)C(C(O)C2CNC(=N)N2)NC(=O)C(Cc2ccc(OC3OC(CO)C(OC4OC(CO)C(O)C5OC(C)(C)OC45)C4OC(C)(C)OC34)cc2)NC1=O (stereo not shown) [Example 229a] ... >128 µg/mL
N=C1NCC(C(O)C2NC(=O)C(Cc3ccc(OC4OC(CO)C(OC5OC6COC(c7ccccc7)OC6C(O)C5O)C(O)C4O)cc3)NC(=O)C(CC3CCCCC3)NC(=O)CNC(=O)C(CO)NC(=O)C(C(O)C3CNC(=N)N3C3OC(CO)C(O)C(O)C3O)NC2=O)N1 (stereo not shown) ... <0.12 µg/mL
CC(c1ccccc1)C1NC(=O)CNC(=O)C(CO)NC(=O)C(C(O)C2CNC(=N)N2C2OC(CO)C(O)C(O)C2O)NC(=O)C(C(O)C2CNC(=N)N2)NC(=O)C(Cc2ccc(OC3OC(CO)C(OC4OC5COC6(CC(C)(C)CC(C)(C)C6)OC5C(O)C4O)C(O)C3O)cc2)NC1=O (stereo not shown) ... <0.12 µg/mL

*Q* Entry CC(c1ccccc1)C1NC(=O)CNC(=O)C(CO)NC(=O)C(C(O)C2CNC(=N)N2C2OC(CO)C(O)C(O)C2O)NC(=O)C(C(O)C2CNC(=N)N2)NC(=O)C(Cc2ccc(OC3OC(CO)C(OC4OC5COC6(CCC(C(C)(C)C)CC6)OC5C(O)C4O)C(O)C3O)cc2)NC1=O (stereo not shown) , system Streptococcus sp.: what MIC Streptococcus pyogenes (GC 4563) was measured?
*A* 0.12 µg/mL

Recorded values, source patent US6914045B2.
